Biological target: EPHA2 (human) (UniProt P29317)
Sequence (P29317 whole entry, looked up): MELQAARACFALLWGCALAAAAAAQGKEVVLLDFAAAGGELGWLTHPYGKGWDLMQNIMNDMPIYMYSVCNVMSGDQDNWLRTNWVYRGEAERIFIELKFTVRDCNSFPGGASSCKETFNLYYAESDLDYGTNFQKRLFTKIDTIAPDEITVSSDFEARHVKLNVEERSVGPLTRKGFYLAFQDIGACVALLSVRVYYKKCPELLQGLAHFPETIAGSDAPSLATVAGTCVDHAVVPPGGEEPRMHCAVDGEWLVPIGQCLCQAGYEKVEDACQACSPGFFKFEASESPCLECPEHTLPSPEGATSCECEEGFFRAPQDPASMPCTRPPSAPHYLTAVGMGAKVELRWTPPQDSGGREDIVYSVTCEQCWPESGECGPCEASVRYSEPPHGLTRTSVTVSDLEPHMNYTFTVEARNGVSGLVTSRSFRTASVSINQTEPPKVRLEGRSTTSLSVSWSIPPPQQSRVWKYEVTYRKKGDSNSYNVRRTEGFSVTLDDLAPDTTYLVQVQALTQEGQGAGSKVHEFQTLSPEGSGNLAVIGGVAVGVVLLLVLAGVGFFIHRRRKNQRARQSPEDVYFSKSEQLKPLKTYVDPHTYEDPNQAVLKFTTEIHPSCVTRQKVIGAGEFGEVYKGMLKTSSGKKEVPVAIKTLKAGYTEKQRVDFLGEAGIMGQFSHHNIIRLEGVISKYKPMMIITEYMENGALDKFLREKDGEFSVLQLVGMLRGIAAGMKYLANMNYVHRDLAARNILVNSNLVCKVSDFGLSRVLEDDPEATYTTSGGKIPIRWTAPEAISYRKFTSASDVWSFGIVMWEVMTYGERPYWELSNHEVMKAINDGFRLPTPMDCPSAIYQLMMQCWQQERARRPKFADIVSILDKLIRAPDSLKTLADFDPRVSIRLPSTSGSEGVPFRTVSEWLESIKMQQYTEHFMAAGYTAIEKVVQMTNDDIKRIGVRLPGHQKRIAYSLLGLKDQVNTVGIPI
Test: radiometric filter-binding kinase assay
Conditions: compound 1.0 µM
# Lookup of reported residual activity keyed by entry
Numeric only. Scale: %

Recorded residual activity, per entry:
C[C@H]1CCCC(=O)CCC/C=C/c2cc(O)cc(O)c2C(=O)O1 | 69
CN(C)C/C=C/C(=O)Nc1cccc(C(=O)Nc2ccc(Nc3nccc(-c4cccnc4)n3)cc2)c1 | 125
C=C1C(=O)OC2C1CC/C(C)=C/CCC1(C)OC21 (centres undefined) | 104

Now examine the next entry.
In plain terms, COc1cc(O)c2c(c1)/C=C/C[C@H](O)[C@H](O)C(=O)/C=C\C[C@H](C)OC2=O has a documented residual activity of 55
